Test: in vitro
Format: cell-based
Conditions: human
Listed here: items and their measured IC50 at 13 h.

{"smilesData": "CC(C)C[C@H](NC(=O)[C@H](CCc1ccccc1)NC(=O)CN1CCOCC1)C(=O)N[C@@H](Cc1ccccc1)C(=O)N[C@@H](CC(C)C)C(=O)[C@@]1(C)CO1", "IC50 at 13 h": "50 to 400 nM"}
{"smilesData": "Cc1cc(C)c(Oc2ccccc2)cc1NC(=O)C(=O)[C@H](CC(C)C)NC(=O)[C@H](CC(C)C)NC(=O)[C@H](CC(C)C)NC(=O)c1cc(Cl)ccc1Cl", "IC50 at 13 h": "300 to 600 nM"}

###

Target: β5c subunit of isolated human 20S proteasome (Homo sapiens, UniProt P28074)
Construct: purchased Enzo Life Sciences
Experiment: Proteasome inhibition assay (20 S Proteasome Assay Kit, Suc‐LLVY‐AMC)
Type: biochemical
Conditions: c = 1 µM, n=1; read-out: Inhibition cCP β5
Listing: inhibition at 1 µM of selected compounds

{"smilesData": "Cc1cc(C)c(Oc2ccccc2)cc1NC(=O)C(=O)[C@H](CC(C)C)NC(=O)[C@H](CC(C)C)NC(=O)[C@H](CC(C)C)NC(=O)OCc1ccccc1", "inhibition at 1 µM / %": 59}
{"smilesData": "CC(C)C[C@H](NC(=O)OCc1ccccc1)C(=O)N[C@@H](CC(C)C)C(=O)N[C@@H](CC(C)C)C(=O)C(=O)Nc1cccc(Oc2ccccc2)c1", "inhibition at 1 µM / %": 81}
{"smilesData": "Cc1cc(C)c(Oc2ccccc2)cc1NC(=O)C(=O)[C@H](CC(C)C)NC(=O)[C@H](CC(C)C)NC(=O)[C@H](CC(C)C)NC(=O)c1cc(Cl)ccc1Cl", "inhibition at 1 µM / %": 91}

###

Here the recorded IC50 is given for each entry.
Biological target: β5i subunit of isolated human 20S proteasome (Homo sapiens, UniProt P28062)
Experiment: Proteasome inhibition assay (20 S Proteasome Assay Kit, Suc‐LLVY‐AMC)
Conditions: purified proteasome
readoutType: IC50 (µM)

{"compound": "Cc1ccc(NC(=O)C(=O)C(CC(C)C)NC(=O)C(CC(C)C)NC(=O)C(CC(C)C)NC(=O)OCc2ccccc2)c(C)c1 (stereo not drawn)", "measuredResult": 0.204}
{"compound": "Cc1cc(C)c(Oc2ccccc2)cc1NC(=O)C(=O)[C@H](CC(C)C)NC(=O)[C@H](CC(C)C)NC(=O)[C@H](CC(C)C)NC(=O)c1cc(Cl)ccc1Cl", "measuredResult": 0.096}
{"compound": "CC(C)C[C@H](NC(=O)OCc1ccccc1)C(=O)N[C@@H](CC(C)C)C(=O)N[C@@H](CC(C)C)C(=O)C(=O)Nc1cccc(Oc2ccccc2)c1", "measuredResult": 0.17}

###

Biological target: β5i subunit of isolated human 20S proteasome (Homo sapiens, UniProt P28062)
Construct: purchased Enzo Life Sciences
Assay: Proteasome inhibition assay (20 S Proteasome Assay Kit, Suc‐LLVY‐AMC)
Assay type: biochemical
Conditions: c = 1 µM, n=1; read-out: Inhibition iCP β5
Procedure: Proteasome inhibition assay. […] The 20 S Proteasome Assay Kit for Drug Discovery was used according to the supplier's protocol using Suc‐LLVY‐AMC (β5), Bz‐VGR‐AMC (β2) or Z‐LLE‐AMC (β1) as substrates (Enzo Life Sciences). […] After 30 min incubation, substrate was added (cfinal=100 μM), incubated for 60 minutes and fluorescence was read using a Tecan M1000 microplate reader. […] IC50 values were determined from technical duplicates as mean value of three independent experiments.
Peptide text beside a SMILES is read from it. * marks the point of attachment. Cbz = O=C(OCc1ccccc1)*; OtBu = CC(C)(C)O*

{"compound": "CC(C)C[C@H](NC(=O)OCc1ccccc1)C(=O)N[C@@H](CC(C)C)C(=O)N[C@@H](CC(C)C)C(=O)C(=O)Nc1ccccc1Oc1ccccc1", "system": "β5i subunit of isolated human 20S proteasome (Homo sapiens, UniProt P28062)", "uom": "%", "inhibition at 1 µM": 7}
{"compound": "CC(C)C[C@@H](C=O)NC(=O)[C@H](CC(C)C)NC(=O)[C@H](CC(C)C)NC(=O)c1cc(Cl)ccc1Cl", "system": "β5i subunit of isolated human 20S proteasome (Homo sapiens, UniProt P28062)", "uom": "%", "inhibition at 1 µM": 89}
{"compound": "Cc1ccc(NC(=O)C(=O)[C@H](CC(C)C)NC(=O)[C@H](CC(=O)OC(C)(C)C)NC(=O)[C@H](CC(C)C)NC(=O)OCc2ccccc2)c(C)c1", "system": "β5i subunit of isolated human 20S proteasome (Homo sapiens, UniProt P28062)", "uom": "%", "inhibition at 1 µM": 69}
{"compound": "Cc1ccc(NC(=O)C(=O)[C@H](CC(C)C)NC(=O)[C@H](CC(=O)OC(C)(C)C)NC(=O)[C@H](CC(C)C)NC(=O)c2cc(Cl)ccc2Cl)c(C)c1", "system": "β5i subunit of isolated human 20S proteasome (Homo sapiens, UniProt P28062)", "uom": "%", "inhibition at 1 µM": 52}
{"compound": "Cc1cc(C)c(Oc2ccccc2)cc1NC(=O)C(=O)[C@H](CC(C)C)NC(=O)[C@H](CC(=O)OC(C)(C)C)NC(=O)[C@H](CC(C)C)NC(=O)OCc1ccccc1", "system": "β5i subunit of isolated human 20S proteasome (Homo sapiens, UniProt P28062)", "uom": "%", "inhibition at 1 µM": 17}
{"compound": "Cc1ccc(NC(=O)C(=O)C(CC(C)C)NC(=O)C(CC(C)C)NC(=O)C(CC(C)C)NC(=O)OCc2ccccc2)c(C)c1 (centres unmarked)", "system": "β5i subunit of isolated human 20S proteasome (Homo sapiens, UniProt P28062)", "uom": "%", "inhibition at 1 µM": 74}
{"compound": "Cc1c(NC(=O)C(=O)[C@H](CC(C)C)NC(=O)[C@H](CC(C)C)NC(=O)[C@H](CC(C)C)NC(=O)OCc2ccccc2)cccc1Oc1ccccc1", "system": "β5i subunit of isolated human 20S proteasome (Homo sapiens, UniProt P28062)", "uom": "%", "inhibition at 1 µM": 30}
{"compound": "CC(C)C[C@@H](C=O)NC(=O)[C@H](CC(C)C)NC(=O)[C@H](CC(C)C)NC(=O)c1cnccn1", "system": "β5i subunit of isolated human 20S proteasome (Homo sapiens, UniProt P28062)", "uom": "%", "inhibition at 1 µM": 64}
{"compound": "CC(C)C[C@H](NC(=O)OCc1ccccc1)C(=O)N[C@@H](CC(C)C)C(=O)N[C@@H](CC(C)C)C(=O)C(=O)Nc1cccc(Oc2ccccc2)c1", "system": "β5i subunit of isolated human 20S proteasome (Homo sapiens, UniProt P28062)", "uom": "%", "inhibition at 1 µM": 31}
{"compound": "CC(C)C[C@H](NC(=O)[C@H](Cc1ccccc1)NC(=O)c1cnccn1)B(O)O [Bortezomib 1, Bortezomib, reference compound]", "system": "β5i subunit of isolated human 20S proteasome (Homo sapiens, UniProt P28062)", "uom": "%", "inhibition at 1 µM": 98}
{"compound": "CC(C)C[C@H](NC(=O)OCc1ccccc1)C(=O)N[C@@H](CC(=O)OC(C)(C)C)C(=O)N[C@@H](CC(C)C)C(=O)C(=O)Nc1ccccc1Oc1ccccc1", "system": "β5i subunit of isolated human 20S proteasome (Homo sapiens, UniProt P28062)", "uom": "%", "inhibition at 1 µM": 7}
{"compound": "CC(C)C[C@H](NC(=O)OCc1ccccc1)C(=O)N[C@@H](CC(=O)OC(C)(C)C)C(=O)N[C@@H](CC(C)C)C(=O)C(=O)Nc1ccccc1", "system": "β5i subunit of isolated human 20S proteasome (Homo sapiens, UniProt P28062)", "uom": "%", "inhibition at 1 µM": 76}
{"compound": "Cc1ccc(NC(=O)C(=O)[C@H](CC(C)C)NC(=O)[C@H](CC(C)C)NC(=O)[C@H](CC(C)C)NC(=O)OCc2ccccc2)cc1Oc1ccccc1", "system": "β5i subunit of isolated human 20S proteasome (Homo sapiens, UniProt P28062)", "uom": "%", "inhibition at 1 µM": 15}
{"compound": "CC(C)C[C@@H](C=O)NC(=O)[C@H](CC(=O)OC(C)(C)C)NC(=O)[C@H](CC(C)C)NC(=O)c1cc(Cl)ccc1Cl", "system": "β5i subunit of isolated human 20S proteasome (Homo sapiens, UniProt P28062)", "uom": "%", "inhibition at 1 µM": 75}
{"compound": "CC(C)C[C@H](NC(=O)OCc1ccccc1)C(=O)N[C@@H](CC(=O)OC(C)(C)C)C(=O)N[C@@H](CC(C)C)C(=O)C(=O)Nc1ccc(Oc2ccccc2)cc1", "system": "β5i subunit of isolated human 20S proteasome (Homo sapiens, UniProt P28062)", "uom": "%", "inhibition at 1 µM": 22}
{"compound": "CC(C)C[C@@H](C=O)NC(=O)[C@H](CC(=O)OC(C)(C)C)NC(=O)[C@H](CC(C)C)NC(=O)OCc1ccccc1 [Compound 5, BSc2118, reference compound] (Cbz-Leu-Asp(OtBu)-Leu-aldehyde)", "system": "β5i subunit of isolated human 20S proteasome (Homo sapiens, UniProt P28062)", "uom": "%", "inhibition at 1 µM": 72}
{"compound": "Cc1cc(C)c(Oc2ccccc2)cc1NC(=O)C(=O)[C@H](CC(C)C)NC(=O)[C@H](CC(=O)OC(C)(C)C)NC(=O)[C@H](CC(C)C)NC(=O)c1cc(Cl)ccc1Cl", "system": "β5i subunit of isolated human 20S proteasome (Homo sapiens, UniProt P28062)", "uom": "%", "inhibition at 1 µM": -1}
{"compound": "CC(C)C[C@H](NC(=O)OCc1ccccc1)C(=O)N[C@@H](CC(=O)OC(C)(C)C)C(=O)N[C@@H](CC(C)C)C(=O)C(=O)Nc1cccc(Oc2ccccc2)c1", "system": "β5i subunit of isolated human 20S proteasome (Homo sapiens, UniProt P28062)", "uom": "%", "inhibition at 1 µM": 31}
{"compound": "CC(C)C[C@H](NC(=O)[C@H](CCc1ccccc1)NC(=O)CN1CCOCC1)C(=O)N[C@@H](Cc1ccccc1)C(=O)N[C@@H](CC(C)C)C(=O)[C@@]1(C)CO1", "system": "β5i subunit of isolated human 20S proteasome (Homo sapiens, UniProt P28062)", "uom": "%", "inhibition at 1 µM": 91}
{"compound": "Cc1ccc(NC(=O)C(=O)[C@H](CC(C)C)NC(=O)[C@H](CC(C)C)NC(=O)[C@H](CC(C)C)NC(=O)OCc2ccccc2)c(C)c1Oc1ccccc1", "system": "β5i subunit of isolated human 20S proteasome (Homo sapiens, UniProt P28062)", "uom": "%", "inhibition at 1 µM": 16}
